target: T1, human Claudin18.2 (human)
T1 construct: also called CLDN18.2
assay: cell ELISA, Claudin18.2-expressing HEK293T cells
Protocol: To determine protein binding EC₅₀ by Cell ELISA, 96-well U-bottom microplates were pre-blocked with blocking buffer (5% MPBS, 1×PBS with 5% skim milk) overnight at 4° C. On the next day, the Claudin18.2-expressing HEK293T stable cell line was suspended at 1.5×10⁶ cells/ml in blocking buffer, added to the plate in 100 μl/well and incubated at room temperature for 1 hour. Raw data were plotted with GraphPad Prism v6.02 software with four parameters, best-fit value program to analyze the EC₅₀.
Overview of recorded EC50 for various binders
Please state the figure in nM; there is no need to write the unit.

Form: binder = 263E9F3 (antibody, V domains shown, mouse hybridoma mAb) VH: EIQVQQSGPELMKPGASVKISCRSSGYSFTSYYIHWVKQSRGKSLEWIGYIDPFSGGTRYNQKFEGKATLTVDKSSTTAYMHLSSLTSEDSAVYYCASLRFFAYWGQGTLVTVSA VL: DIVMTQSPSSLTVTAGEKVTMTCKSSQSLLNSGNQENYLTWYQQKPGQPPELLISRASTRQSGVPDRFTGSGSGTDFTLTISSVQTEDLAVYYCQNDYSYPLTFGAGTKLELK ; EC50 = 1.08

Next, consider the following binder.
Per the records, this binder ( 392A11C8 (antibody, V domains shown, mouse hybridoma mAb) VH: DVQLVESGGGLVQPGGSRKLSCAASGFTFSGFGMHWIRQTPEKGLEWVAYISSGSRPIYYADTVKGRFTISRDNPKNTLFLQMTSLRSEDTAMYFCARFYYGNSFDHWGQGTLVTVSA VL: DIVMTQSPSFLTVTAGEKVTMSCRSSQSLLNSGNQKNYLTWYQQKPGQPPKLLIYWASTRESGVPDRFTGSGSGTDFTLTISSVQAEDLALYYCQNAYSFPLTFGAGTKLELK ) has EC50 equal to 1.21

Source of measurements: patent US20220073643A1
